Tested on: HEP-G2 cells
measurement.notes: cells
condition.details: Homo sapiens, HepG2, read-out: HEP-G2 Emax (μM), HEP-G2 cells, concentration at which Emax is achieved (CEmax)
Measured EC (Emax) of individual entries

compound: Cc1c(Br)cc(C(C)(C)C)c(O)c1C(=O)Nc1ccc(Cl)cc1Cl
EC (Emax) (µM): 10
--
compound: CC(C)c1cccc(C(=O)Nc2ccc([N+](=O)[O-])cc2Cl)c1O
EC (Emax) (µM): 30
--
compound: CC(C)(C)c1cc(/C=N/C(C#N)=C(\N)C#N)cc(C(C)(C)C)c1O
EC (Emax) (µM): 30
--
compound: Cc1c(Br)cc(C(C)(C)C)c(O)c1C(=O)Nc1c(Cl)cc([N+](=O)[O-])cc1Cl
EC (Emax) (µM): 1
--
compound: O=C(Nc1ccc([N+](=O)[O-])c(C(F)(F)F)c1)c1cc(F)cc(C(F)(F)F)c1
EC (Emax) (µM): 10
--
compound: CC(=C(C#N)C#N)c1cc(C(C)(C)C)c(O)c(C(C)(C)C)c1
EC (Emax) (µM): 30
--
compound: Cc1c(Br)cc(C(C)(C)C)c(O)c1C(=O)Nc1c(Cl)cc(Cl)cc1[N+](=O)[O-]
EC (Emax) (µM): 3
--
compound: Cc1c(Cl)cc(C(C)(C)C)c(O)c1C(=O)Nc1ccc([N+](=O)[O-])cc1Cl
EC (Emax) (µM): 0.3
--
compound: Cc1c(Br)cc(C(C)(C)C)c(O)c1C(=O)Nc1c(Cl)cc(Cl)cc1C(F)(F)F
EC (Emax) (µM): 30
--
compound: Cc1ccc(C(C)(C)C)c(O)c1C(=O)Nc1ccc([N+](=O)[O-])cc1C(F)(F)F
EC (Emax) (µM): 10
--
compound: Cc1cc(C(C#N)c2ccc(Cl)cc2)c(Cl)cc1NC(=O)c1c(C)c(Br)cc(C(C)(C)C)c1O (stereo not drawn)
EC (Emax) (µM): 100
--
compound: CCOC(=O)/C(C#N)=C/c1cc(C(C)(C)C)c(O)c(C(C)(C)C)c1
EC (Emax) (µM): 3

* * *

System: FSK-4 cells
measurement.notes: Assay (IV): Glucose utilisation in FSK-4 cells
Assay type: cell-based
condition.details: FSK-4 cells, maximal efficacy relative to FCCP; read-out: FSK4 Emax (% of FCCP)
Measured Emax of individual entries
observable: Emax (%)

record.smiles: Cc1[nH]c2c(Br)cccc2c1C=C(C#N)C#N
measured.value: 105
--
record.smiles: Cc1c(Cl)cc(C(C)(C)C)c(O)c1C(=O)Nc1cc(C(F)(F)F)cc(C(F)(F)F)c1
measured.value: 90
--
record.smiles: CC(C)(C)c1cc(/C=C(\C#N)c2ccc(OC(F)(F)F)cc2)cc(C(C)(C)C)c1O
measured.value: 100
--
record.smiles: Cc1c(Br)cc(C(C)(C)C)c(O)c1C(=O)Nc1cc(C(F)(F)F)ccc1C(F)(F)F
measured.value: 105
--
record.smiles: O=C(Nc1ccc([N+](=O)[O-])cc1Cl)c1cccc(-c2ccccc2)c1O
measured.value: 90
--
record.smiles: Cc1c(Br)cc(C(C)(C)C)c(O)c1C(=O)Nc1cc(C(F)(F)F)cc(C(F)(F)F)c1Br
measured.value: 105
--
record.smiles: Cc1c(Br)cc(C(C)(C)C)c(O)c1C(=O)Nc1c(Cl)cc(Cl)cc1C(F)(F)F
measured.value: 85
--
record.smiles: Cc1ccc(C(C)(C)C)c(O)c1C(=O)Nc1ccc([N+](=O)[O-])cc1C(F)(F)F
measured.value: 100
--
record.smiles: CC(C)(C)c1cc(/C=C(\C#N)c2ccccn2)cc(C(C)(C)C)c1O
measured.value: 120
--
record.smiles: CC(=C(C#N)C#N)c1cc(C(C)(C)C)c(O)c(C(C)(C)C)c1
measured.value: 75
--
record.smiles: CCCC[P+](CCCC)(CCCC)Cc1cc(C(C)(C)C)c(O)c(C(C)(C)C)c1.[Br-]
measured.value: 85
--
record.smiles: Cc1c(Cl)cc(C(C)(C)C)c(O)c1C(=O)Nc1ccc([N+](=O)[O-])c(C(F)(F)F)c1
measured.value: 95
--
record.smiles: N#CC(C#N)=Cc1c[nH]c2ccc([N+](=O)[O-])cc12
measured.value: 50
--
record.smiles: Cc1c(Br)cc(C(C)(C)C)c(O)c1C(=O)Nc1c(Cl)cc(Cl)cc1[N+](=O)[O-]
measured.value: 80
--
record.smiles: CC(C)(C)c1cc(C=C2C(=O)c3ccccc3C2=O)cc(C(C)(C)C)c1O
measured.value: 100
--
record.smiles: CCCCCCCC[P+](CCCCCCCC)(CCCCCCCC)Cc1cc(C(C)(C)C)c(O)c(C(C)(C)C)c1.[Br-]
measured.value: 100
--
record.smiles: Cc1c(Br)cc(C(C)(C)C)c(O)c1C(=O)Nc1ccc(C(C)C)cc1C(F)(F)F
measured.value: 55
--
record.smiles: CC(C)(C)c1cc(C[P+](c2ccccc2)(c2ccccc2)c2ccccc2)cc(C(C)(C)C)c1O
measured.value: 90
--
record.smiles: Cc1c(Br)cc(C(C)(C)C)c(O)c1C(=O)Nc1c(Cl)cc([N+](=O)[O-])cc1Cl
measured.value: 100
--
record.smiles: CC(C)(C)c1cc(C[P+](C2CCCCC2)(C2CCCCC2)C2CCCCC2)cc(C(C)(C)C)c1O
measured.value: 85
--
record.smiles: Cc1c(Cl)cc(C(C)(C)C)c(O)c1C(=O)Nc1ccc([N+](=O)[O-])cc1C(F)(F)F
measured.value: 75
--
record.smiles: CC(C)(C)c1cc([N+](=O)[O-])cc([N+](=O)[O-])c1O
measured.value: 100
--
record.smiles: Cc1[nH]c2ccc(Br)cc2c1C=C(C#N)C#N
measured.value: 40

* * *

System: FSK-4 cells
measurement.notes: Assay (IV): Glucose utilisation in FSK-4 cells
Assay type: cell-based
condition.details: FSK-4 cells, glucose utilisation, 24 hours incubation; read-out: FSK4 EC50
pEC50: −log10 of the molar value.
Measured pEC50 of individual entries

compound: Cc1c(Cl)cc(C(C)(C)C)c(O)c1C(=O)Nc1ccc([N+](=O)[O-])c(C(F)(F)F)c1 [Example 49]
value.qualifier: =
pEC50: 6.52
--
compound: CCOC(=O)/C(=C/c1cc(C(C)(C)C)c(O)c(C(C)(C)C)c1)C(C)=O [Example 69]
value.qualifier: =
pEC50: 5.05
--
compound: CC(C)(C)c1cc(C=C2C(=O)c3ccccc3C2=O)cc(C(C)(C)C)c1O [Example 18]
value.qualifier: =
pEC50: 5.22
--
compound: N#CC(C#N)=Cc1c(Br)[nH]c2ccccc12 [Example 97]
value.qualifier: =
pEC50: 5.82
--
compound: Cc1c(Cl)cc(C(C)(C)C)c(O)c1C(=O)Nc1cc(C(F)(F)F)ccc1F [Example 48]
value.qualifier: =
pEC50: 5.55
--
compound: CC(C)(C)c1cc(C[P+](c2ccccc2)(c2ccccc2)c2ccccc2)cc(C(C)(C)C)c1O [Example 11]
value.qualifier: =
pEC50: 6.52
--
compound: Cc1c(Br)cc(C(C)(C)C)c(O)c1C(=O)Nc1ccc(Cl)cc1Cl [Example 53]
value.qualifier: =
pEC50: 4.82
--
compound: CCCCCCCC[P+](CCCCCCCC)(CCCCCCCC)Cc1cc(C(C)(C)C)c(O)c(C(C)(C)C)c1.[Br-] [Example 14]
value.qualifier: =
pEC50: 6.70
--
compound: Cc1c(Cl)cc(C(C)(C)C)c(O)c1C(=O)Nc1ccc([N+](=O)[O-])cc1C(F)(F)F [Example 50]
value.qualifier: >
pEC50: 7.52
--
compound: CC(C)(C)c1cc(/C=C(\C#N)S(=O)(=O)c2cc(Cl)ccc2Cl)cc(C(C)(C)C)c1O [Example 89]
value.qualifier: =
pEC50: 6.30
--
compound: Cc1c(Br)cc(C(C)(C)C)c(O)c1C(=O)Nc1cc(C(F)(F)F)ccc1C(F)(F)F [Example 61]
value.qualifier: =
pEC50: 5.96
